Target: recombinant Axl tyrosine kinase (Homo sapiens)
Construct: encompassing amino acids 473 to 894 of Axl; GST (N); made in house; host or cells: SF126 insect cells
Experiment: In vitro Axl kinase assay (AlphaScreen), Test (a)
Format: biochemical
Details: test compound at 1 μM; first value quoted
value.kind: % Axl tyrosine kinase inhibition at 1 μM concentration (%)

CN1CCC(n2cc(-c3cnc(N)c(-c4nc5cccc(F)c5o4)c3)cn2)CC1 [Example 41.10] = 99.7
Nc1ncc(-c2ccc(S(=O)(=O)NC3CC3)cc2)cc1-c1nc2ccccc2o1 [Example 2.30] = 96.1
COCC1CC(Oc2ccc(-c3cnc(N)c(-c4nc5ncccc5o4)c3)cc2OC)CN1 (stereo not shown) [Example 43C.36] = 99.8
C[C@H](O)C(=O)N1CCC(n2cc(-c3cnc(N)c(-c4nc5ncccc5o4)c3)cn2)CC1 [Example 57.3] = 98.7
CN1CCC(n2cc(-c3cnc(N)c(-c4nc5ccccc5o4)c3)c(C(N)=O)n2)CC1 [Example 41.35] = 99.8
NC(=O)c1ccc(-c2cnc(N)c(-c3nc4cnccc4o3)c2)cc1 [Example 8A.9] = 98.7
CN1CCOC(CNC(=O)c2ccc(-c3cnc(N)c(-c4nc5cccnc5o4)c3)cc2)C1 (stereo not shown) [Example 45A.28] = 97.5
CN[C@H]1COCC[C@H]1Oc1ccc(-c2cnc(N)c(-c3nc4ncccc4o3)c2)cc1OC [Example 43C.37] = 99.4
Nc1ncc(-c2cccc(N3CCOCC3)c2)cc1-c1nc2ccncc2o1 [Example 11A.12] = 93.7
CN1CCC(NC(=O)c2ccc(-c3cnc(N)c(-c4nc5cccnc5o4)c3)cc2)CC1 [Example 45A.69] = 96.7

* * *

Biological target: recombinant Axl tyrosine kinase (Homo sapiens, UniProt P30530)
Construct: encompassing amino acids 473 to 894 of Axl; GST (N); made in house; host or cells: SF126 insect cells
Experiment: In vitro Axl kinase assay (AlphaScreen), Test (a)
Format: biochemical
Settings: test compound at 1 μM; first value quoted
value.kind: % Axl tyrosine kinase inhibition at 1 μM concentration (%)

COc1cccc2nc(-c3cc(-c4cn(C5CCNCC5)nc4CO)cnc3N)oc12 [Example 62.13] = 100.0
CNCCOc1ccc(-c2cnc(N)c(-c3nc4ncccc4o3)c2)cc1OC [Example 43C.22] = 98.2
CN1CCC(Cn2cc(-c3cnc(N)c(-c4nc5ccccc5o4)c3)cn2)CC1 [Example 41.6] = 99.9
Nc1ncc(-c2cnn(C3CCNCC3)c2)cc1-c1nc2c(F)cccc2o1 [Example 38A.2] = 100.0
CN(C)C(=O)CN1CCN(C(=O)c2ccc(-c3cnc(N)c(-c4nc5cccnc5o4)c3)cc2)CC1 [Example 45A.67] = 96.8
Nc1ncc(-c2cccc(C(=O)NCCN3CCCC3)c2)cc1-c1nc2ncccc2o1 [Example 10A.9] = 82.5
CN(C)[C@@H]1CCN(C(=O)c2ccc(-c3cnc(N)c(-c4nc5cccnc5o4)c3)cc2)C1 [Example 45A.76] = 96.7
Nc1ncc(-c2ccc(OCC3CCCNC3)cc2)cc1-c1nc2ncccc2o1 (centres unmarked) [Example 43B.41] = 99.0
CC1CCCCN1CC1CCCN1C(=O)c1ccc(-c2cnc(N)c(-c3nc4cccnc4o3)c2)cc1 (centres unmarked) [Example 45A.18] = 99.7
Nc1ncc(-c2ccc(C(=O)N3CCCC4(CCNCC4)C3)cc2)cc1-c1nc2cccnc2o1 [Example 45A.91] = 96.3
Nc1ncc(-c2ccc(C(=O)N3CCC[C@H]3CN3CCCC3)cc2)cc1-c1nc2cccnc2o1 [Example 45A.66] = 99.9
Nc1ncc(-c2ccc(C(=O)N3CCCC(N)CC3)cc2)cc1-c1nc2cccnc2o1 (centres unmarked) [Example 45A.95] = 99.5
CN1CCN(C(=O)c2cccc(-c3cnc(N)c(-c4nc5cccnc5o4)c3)c2)CC1 [Example 9A.18] = 80.8
CN1CCC(CNC(=O)c2ccc(-c3cnc(N)c(-c4nc5cccnc5o4)c3)cc2)C1 (centres unmarked) [Example 45A.27] = 97.9

* * *

Target: recombinant Axl tyrosine kinase (Homo sapiens, UniProt P30530)
Construct: encompassing amino acids 473 to 894 of Axl; GST (N); made in house; host or cells: SF126 insect cells
Sequence (P30530 473-894): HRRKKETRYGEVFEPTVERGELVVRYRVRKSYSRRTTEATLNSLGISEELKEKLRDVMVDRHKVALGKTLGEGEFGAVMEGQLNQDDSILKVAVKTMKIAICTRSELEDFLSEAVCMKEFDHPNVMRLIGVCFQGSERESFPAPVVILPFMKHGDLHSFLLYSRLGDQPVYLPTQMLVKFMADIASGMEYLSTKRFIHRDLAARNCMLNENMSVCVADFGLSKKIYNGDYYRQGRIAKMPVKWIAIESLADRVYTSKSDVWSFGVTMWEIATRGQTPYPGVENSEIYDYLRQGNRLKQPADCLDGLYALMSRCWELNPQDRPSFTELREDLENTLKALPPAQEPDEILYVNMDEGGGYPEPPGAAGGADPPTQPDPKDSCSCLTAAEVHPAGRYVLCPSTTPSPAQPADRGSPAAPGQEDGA
Test: In vitro Axl kinase assay (AlphaScreen), Test (a)
Format: biochemical
Conditions: test compound at 1 μM; first value quoted
value.kind: % Axl tyrosine kinase inhibition at 1 μM concentration (%)

COCc1cccc(-c2cnc(N)c(-c3nc4ccccc4o3)c2)c1 [Example 2.15] = 80.2
Nc1ncc(-c2ccc(C(=O)N3CC4CNCC4C3)cc2)cc1-c1nc2cccnc2o1 (stereo not drawn) [Example 45A.94] = 98.9
CC(C)N1CCC[C@H]1CNC(=O)c1ccc(-c2cnc(N)c(-c3nc4cccnc4o3)c2)cc1 [Example 45A.43] = 99.9
Nc1ncc(-c2ccc(OCCN3CCOCC3)cc2)cc1-c1nc2ncccc2o1 [Example 43B.6] = 96.4
CC(C)(C)OC(=O)N1CCC(C(=O)Nc2cccc(-c3cnc(N)c(-c4nc5ccncc5o4)c3)c2)CC1 [Example 11A.3] = 87.7
CN(C)CCC(=O)N1CCC(n2cc(-c3cnc(N)c(-c4nc5ncccc5o4)c3)cn2)CC1 [Example 59.6] = 99.9
Nc1ncc(-c2ccc(C(=O)NCCN3CCC(F)(F)C3)cc2)cc1-c1nc2cccnc2o1 [Example 45A.37] = 92.2
CNC(=O)c1cccc(-c2cnc(N)c(-c3nc4ccccc4o3)c2)c1 [Example 2.17] = 68.9
CCOc1nn(C2CCN(C)CC2)cc1-c1cnc(N)c(-c2nc3ccccc3o2)c1 [Example 41.13] = 100.0
Nc1ncc(-c2cccc(CN3CCCCC3)c2)cc1-c1nc2ncccc2o1 [Example 10A.11] = 88.4
Nc1ncc(-c2ccc(C(=O)NCCN3CC[C@H](F)C3)cc2)cc1-c1nc2cccnc2o1 [Example 45A.38] = 98.4
COc1cc(-c2cnc(N)c(-c3nc4ncccc4o3)c2)ccc1OCC1CCCN(C)C1 (stereo not drawn) [Example 43C.12] = 99.6
Nc1ncc(-c2ccc(OCCC3CCNCC3)cc2)cc1-c1nc2ncccc2o1 [Example 43B.35] = 95.9
Nc1ncc(-c2ccc(CN3CCOCC3)cc2)cc1-c1nc2cccnc2o1 [Example 9A.21] = 95.6
CNCCCOc1ccc(-c2cnc(N)c(-c3nc4ncccc4o3)c2)cc1 [Example 43B.32] = 98.6
Nc1ncc(-c2cnn(CCCN3CCC3)c2)cc1-c1nc2ccccc2o1 [Example 31.6] = 99.7
Nc1ncc(-c2ccc(C(=O)N3CCC(C4CCNCC4)CC3)cc2)cc1-c1nc2cccnc2o1 [Example 45A.86] = 95.8
CN1CCC(n2cc(-c3cnc(N)c(-c4nc5c(F)cccc5o4)c3)c(C(=O)N(C)C)n2)CC1 [Example 41.37] = 99.5
CC1CCN(CCCNC(=O)c2ccc(-c3cnc(N)c(-c4nc5cccnc5o4)c3)cc2)CC1 [Example 45A.46] = 99.1
CS(=O)(=O)N1CCN(CCCOc2ccc(-c3cnc(N)c(-c4nc5ncccc5o4)c3)cc2)CC1 [Example 43B.15] = 86.0

* * *

Target: recombinant Axl tyrosine kinase (Homo sapiens, UniProt P30530)
Construct: encompassing amino acids 473 to 894 of Axl; GST (N); made in house; host or cells: SF126 insect cells
Assay: In vitro Axl kinase assay (AlphaScreen), Test (a)
Assay type: biochemical
Details: test compound at 1 μM; first value quoted
value.kind: % Axl tyrosine kinase inhibition at 1 μM concentration (%)

CN1CCC(n2cc(-c3cnc(N)c(-c4nc5ccccc5o4)c3)c(C#N)n2)CC1 = 100.0
Cc1nn(C2CCNCC2)cc1-c1cnc(N)c(-c2nc3ncccc3o2)c1 = 99.9
Nc1ncc(-c2cnn(C3CNC3)c2)cc1-c1nc2ccccc2o1 = 99.8
CS(=O)(=O)c1cccc(-c2cnc(N)c(-c3nc4ccccc4o3)n2)c1 = 92.1
CN1CCN(c2ccc(-c3cnc(N)c(-c4nc5ncccc5o4)c3)cc2)CC1 = 99.1
Nc1ncc(-c2ccc(C(=O)N3CCCCC3CCN3CCCC3)cc2)cc1-c1nc2cccnc2o1 (stereo not drawn) [Example 45A.29] = 98.8
CCN1CCC(n2cc(-c3cnc(N)c(-c4nc5ccccc5o4)c3)cn2)CC1 = 100.0
CC(C)(C)OC(=O)NCc1cccc(-c2cnc(N)c(-c3nc4ccncc4o3)c2)c1 [Example 11A.9] = 99.3
CCS(=O)(=O)c1cccc(-c2cnc(N)c(-c3nc4ccccc4o3)n2)c1 = 97.2
COc1cc(-c2cnc(N)c(-c3nc4ncccc4o3)c2)ccc1OCCN1CCN(C)CC1 [Example 43C.7] = 99.1
CN(C)CCCNC(=O)c1ccc(-c2cnc(N)c(-c3nc4cccnc4o3)c2)cc1 = 98.8
CCN(CC)C1CCN(C(=O)c2ccc(-c3cnc(N)c(-c4nc5cccnc5o4)c3)cc2)C1 (stereo not drawn) [Example 45A.33] = 97.7
Nc1ncc(-c2ccc(C(=O)N3CCN(Cc4ccccn4)CC3)cc2)cc1-c1nc2cccnc2o1 [Example 45A.60] = 98.1
Nc1ncc(-c2cccc(CN3CCCCC3)c2)cc1-c1nc2cnccc2o1 = 95.2
CNCCOc1ccc(-c2cnc(N)c(-c3nc4ncccc4o3)c2)cc1 [Example 43B.26] = 97.7
NCc1ccc(-c2cnc(N)c(-c3nc4ncccc4o3)c2)cc1 [Example 10A.4] = 99.0
Nc1ncc(-c2ccc(C(=O)NCCN3CCNCC3)cc2)cc1-c1nc2cccnc2o1 [Example 45A.83] = 98.9
NCc1ccc(-c2cnc(N)c(-c3nc4ccccc4o3)c2)cc1 = 99.7
Nc1ncc(-c2cccc(C(=O)NC3CC3)c2)cc1-c1nc2cnccc2o1 = 87.8
NC(=O)CN1CCC(n2cc(-c3cnc(N)c(-c4nc5ncccc5o4)c3)cn2)CC1 = 98.8
Nc1ncc(-c2cnn(C3CCN(CCO)CC3)c2)cc1-c1nc2ncccc2o1 = 100.0
